# experiment: Pharmacokinetics (biodistribution 1-24 h) in non-tumor bearing mice
# Assay type: in vivo
# conditionSet: female, BALB/c, mouse, heart, 200 umol, total radioactivity; 1 hour after injection, ^61Cu; read-out: Biodistribution Heart
# Description: The biodistribution at the investigate time points was performed as described in the Example 9. The data were combined with the results obtained from the groups of xenografts at 1 hour and 4 hours p.i., as the biodistribution in nude mice was the same as in the healthy mice. The results were expressed as described in the Example 10.
metricName: tissue uptake at 1 h (%ID/g)
Answers are plain numbers, in %ID/g.

## Task Report measured tissue uptake at 1 h; entry is C[C@@H](O)[C@@H]1NC(=O)[C@H](CCCCN)NC(=O)[C@@H](Cc2c[nH]c3ccccc23)NC(=O)[C@H](Cc2ccc(O)cc2)NC(=O)[C@@H](NC(=O)[C@@H](Cc2ccccc2)NC(=O)CCC(C(=O)O)N2CCN(CC(=O)O)CCN(CC(=O)O)CC2)CSSC[C@@H](C(=O)N[C@H](CO)[C@@H](C)O)NC1=O (single isomer, unassigned) [[^61/^64Cu]Cu-NODAGA-TOC, metal not drawn]
## Result 0.17
